System: K562 leukemia cells
Assay: MTT assay, in vitro inhibitory activity on cells
Assay type: cell-based
Details: Homo sapiens, typically 48 hours, read-out: IC50 K562 Chronic myelogenous leukemia cells
Attribute measured: pIC50
API: returns pIC50 as number; meaning -log10 of concentration in mol/L.

Cc1ccc(C(=O)Nc2ccc(CN3CCN(C)CC3)c(C(F)(F)F)c2)cc1C#Cc1cn(C)c(-c2ncc([N+](=O)[O-])[nH]2)n1 [Example 11] | 5.50

Observed pIC50 on K562 leukemia cells for Cc1cnc(-c2nc(C#Cc3cc(C(=O)Nc4ccc(CN5CCN(CCO)CC5)c(C(F)(F)F)c4)ccc3C)cn2C)[nH]1 [Example 12] , please.
5.64

Form field: pIC50 recorded for Cc1ccc(NC(=O)Nc2ccc(CN3CC[C@@H](N(C)C)C3)c(F)c2)cc1C#Cc1cn(C)c(-c2ncc(C(F)(F)F)[nH]2)n1 [Example 13] with K562 leukemia cells (enter value)
6.28

Lab note: need pIC50 with K562 leukemia cells for entry Cc1ccc(C(=O)Nc2ccc(CN3CC[C@@H](N(C)C)C3)c(C(F)(F)F)c2)cc1C#Cc1ccc(-c2ncc(C(F)(F)F)[nH]2)nc1 [Example 20] , please look it up.
5.66

Notebook: pull reported pIC50 for K562 leukemia cells, entry Cc1ccc(C(=O)Nc2ccc(CN3CCN(C)CC3)c(C(F)(F)F)c2)cc1C#Cc1ccc(-c2nc[nH]n2)nc1 [Example 25]
5.45

I'm curious: which pIC50 was measured for Cc1ccc(NC(=O)c2ccc(CN3CCN(C)CC3)cc2)cc1C#Cc1ccc(-c2ncc(C#N)[nH]2)nc1 [Example 21] tested on K562 leukemia cells?
5.44
